Origin of the recorded values: paper PMC9393037

Assay: Tissue distribution and targeting evaluation after i.v. administration to mice
Format: in vivo, ICR mice
Conditions: male, ICR, mouse, kidney, iv, 2.8 mg/kg
ATTRIBUTE MEASURED: Cmax (ng/g)
Report the figure in ng/g without appending any unit label.

[in] Field request: Cmax | item: O=C(/C=C/c1ccc(O)cc1)c1ccc(O)cc1O [ISL]
[out] 713

* * *

Test: Pharmacokinetics after single i.v. administration to rats
Type: in vivo, Sprague Dawley rats
Settings: Sprague Dawley, rat, plasma, iv, 2 mg/kg
ATTRIBUTE MEASURED: AUC(0-t)

[in] Field request: AUC(0-t) | item: O=C(/C=C/c1ccc(O)cc1)c1ccc(O)cc1O
[out] 307 ng·h/mL

* * *

Test: Tissue distribution and targeting evaluation after i.v. administration to mice
Assay type: in vivo, ICR mice
Conditions: male, ICR, mouse, lung, iv, 2.8 mg/kg
ATTRIBUTE MEASURED: Cmax
Write the quantity with the unit trailing the number.

[in] Field request: Cmax | item: O=C(/C=C/c1ccc(O)cc1)c1ccc(O)cc1O
[out] 179 ng/g

* * *

Assay: Pharmacokinetics after single i.v. administration to rats
Format: in vivo, Sprague Dawley rats
Settings: Sprague Dawley, rat, plasma, iv, 2 mg/kg
ATTRIBUTE MEASURED: MRT last (min)
Report the figure in min without appending any unit label.

[in] Field request: MRT last | item: O=C(/C=C/c1ccc(O)cc1)c1ccc(O)cc1O
[out] 10.2

* * *

Experiment: Tissue distribution and targeting evaluation after i.v. administration to mice
Assay type: in vivo, ICR mice
Settings: male, ICR, mouse, brain, iv, 2.8 mg/kg
ATTRIBUTE MEASURED: Cmax

[in] Field request: Cmax | item: O=C(/C=C/c1ccc(O)cc1)c1ccc(O)cc1O [ISL]
[out] 21.7 ng/g

* * *

Experiment: Tissue distribution and targeting evaluation after i.v. administration to mice
Assay type: in vivo, ICR mice
Conditions: male, ICR, mouse, liver, iv, 2.8 mg/kg
ATTRIBUTE MEASURED: Cmax (ng/g)
Report the figure in ng/g without appending any unit label.

[in] Field request: Cmax | item: O=C(/C=C/c1ccc(O)cc1)c1ccc(O)cc1O
[out] 574
